Sourced from patent US20090299049A1

- test: UV absorbance and fluorescence of ribonucleoside analogues in DMSO (molar extinction coefficient, quantum yield)
- Format: physicochemical
observable: Molar absorption coefficient (M⁻¹ cm⁻¹)
Just the number in M⁻¹ cm⁻¹, nothing appended.

Exam item: Fill blank: measured Molar absorption coefficient of the compound `Nc1nc2c(nc(C#Cc3ccc(Cl)cc3)n2[C@@H]2O[C@H](CO)[C@@H](O)[C@H]2O)c(=O)[nH]1` is ____.
Marked response: 23317

Exam item: Now this one: `Nc1nc2c(nc(C#Cc3ccc(F)cc3)n2[C@@H]2O[C@H](CO)[C@@H](O)[C@H]2O)c(=O)[nH]1`
Marked response: 11304

Exam item: Now this one: `CC(=O)c1ccc(C#Cc2nc3c(N)ncnc3n2[C@@H]2O[C@H](CO)[C@@H](O)[C@H]2O)cc1`
Marked response: 19639

Exam item: Now this one: `CC(=O)c1ccc(C#Cc2nc3c(=O)[nH]c(N)nc3n2[C@@H]2O[C@H](CO)[C@@H](O)[C@H]2O)cc1`
Marked response: 19589

Exam item: Now this one: `Nc1ncnc2c1nc(C#Cc1ccc(F)cc1)n2[C@@H]1O[C@H](CO)[C@@H](O)[C@H]1O`
Marked response: 5558

Exam item: Now this one: `COc1cccc(C#Cc2nc3c(=O)[nH]c(N)nc3n2[C@@H]2O[C@H](CO)[C@@H](O)[C@H]2O)c1`
Marked response: 20261

Exam item: Now this one: `Cc1ccc(C#Cc2nc3c(=O)[nH]c(N)nc3n2[C@@H]2O[C@H](CO)[C@@H](O)[C@H]2O)cc1`
Marked response: 16591

---

- test: Optical properties: UV-visible spectra, fluorescence excitation and emission
- Format: physicochemical
- condition info: fluorescence excitation wavelength
Provide the reported λex of each item.
Just the number in nm, nothing appended.

Exam item: Fill blank: measured λex of the molecule `CSc1ccc(C#Cc2nc3c(N)ncnc3n2[C@@H]2O[C@H](CO)[C@@H](O)[C@H]2O)cc1` is ____.
Marked response: 368

Exam item: Now this one: `Cc1ccc(C#Cc2nc3c(N)ncnc3n2[C@@H]2O[C@H](CO)[C@@H](O)[C@H]2O)cc1`
Marked response: 350

Exam item: Now this one: `Nc1nc2c(nc(C#Cc3ccccc3)n2[C@@H]2O[C@H](CO)[C@@H](O)[C@H]2O)c(=O)[nH]1`
Marked response: 370

Exam item: Now this one: `CSc1ccc(C#Cc2nc3c(=O)[nH]c(N)nc3n2[C@@H]2O[C@H](CO)[C@@H](O)[C@H]2O)cc1`
Marked response: 374

---

Provide the reported Wavelength at fluorescence emission maximum of each item.
- test: UV absorbance and fluorescence of ribonucleoside analogues in DMSO (molar extinction coefficient, quantum yield)
- Type: physicochemical
- Text: UV absorbance and fluorescence excitation and emission data were used to determine the molar extinction coefficient and fluorescence quantum yield of a several adenosine and guanosine ribonucleoside analogues in DMSO (see the Table below). The data acquired support the concept that the fluorescence properties of these analogues can be tuned by altering the electron-donating or electron-withdrawing R-group on the terminal phenylalkyne. […]
Just the number in nm, nothing appended.

Exam item: Fill blank: measured Wavelength at fluorescence emission maximum of the compound `COc1cccc(C#Cc2nc3c(=O)[nH]c(N)nc3n2[C@@H]2O[C@H](CO)[C@@H](O)[C@H]2O)c1` is ____.
Marked response: 420

Exam item: Now this one: `Nc1ncnc2c1nc(C#Cc1ccc(Cl)cc1)n2[C@@H]1O[C@H](CO)[C@@H](O)[C@H]1O`
Marked response: 410

Exam item: Now this one: `Nc1nc2c(nc(C#Cc3ccc(F)cc3)n2[C@@H]2O[C@H](CO)[C@@H](O)[C@H]2O)c(=O)[nH]1`
Marked response: 416

Exam item: Now this one: `Cc1ccc(C#Cc2nc3c(N)ncnc3n2[C@@H]2O[C@H](CO)[C@@H](O)[C@H]2O)cc1`
Marked response: 393

Exam item: Now this one: `CCN(CC)c1ccc(C#Cc2nc3c(N)ncnc3n2[C@@H]2O[C@H](CO)[C@@H](O)[C@H]2O)cc1`
Marked response: 441

Exam item: Now this one: `Nc1nc2c(nc(C#Cc3cccc4ccccc34)n2[C@@H]2O[C@H](CO)[C@@H](O)[C@H]2O)c(=O)[nH]1`
Marked response: 467

Exam item: Now this one: `CCN(CC)c1ccc(C#Cc2nc3c(=O)[nH]c(N)nc3n2[C@@H]2O[C@H](CO)[C@@H](O)[C@H]2O)cc1`
Marked response: 409
